# credit: patent US20100273814A1

# target.of.assay: alpha2A receptor (Homo sapiens, UniProt P08913)
# Construct: expressed in transfected cells; host or cells: NIH-3T3 cells
# Sequence (P08913 whole entry): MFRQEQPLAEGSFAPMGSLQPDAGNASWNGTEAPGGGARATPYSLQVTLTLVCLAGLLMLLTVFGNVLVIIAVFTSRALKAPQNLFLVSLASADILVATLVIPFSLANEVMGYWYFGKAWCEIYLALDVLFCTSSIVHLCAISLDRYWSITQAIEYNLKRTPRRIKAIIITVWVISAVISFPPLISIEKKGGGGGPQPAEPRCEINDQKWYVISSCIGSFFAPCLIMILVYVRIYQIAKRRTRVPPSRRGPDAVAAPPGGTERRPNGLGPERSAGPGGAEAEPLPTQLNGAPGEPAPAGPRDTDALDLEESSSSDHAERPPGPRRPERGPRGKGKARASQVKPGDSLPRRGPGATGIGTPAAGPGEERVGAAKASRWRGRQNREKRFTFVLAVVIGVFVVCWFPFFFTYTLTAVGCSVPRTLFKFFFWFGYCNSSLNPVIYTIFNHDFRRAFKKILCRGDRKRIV
# assay.name: Receptor Selection and Amplification Technology (RSAT) assay, alpha2A
# Type: cell-based
# condition.set: RSAT, transfected NIH-3T3 cells; value outside brackets; read-out: Alpha 2A EC50 (potency)
pEC50: −log10 of the molar value.
Reported pEC50 by item:

In the examples that follow, each entry is paired with its recorded pEC50.
compound="c1ccc(C(c2ccccn2)c2c[nH]cn2)cc1 (stereo not shown)" observed_value="< 5.00"
compound="Cc1ccccc1C(c1ccccn1)c1c[nH]cn1 (stereo not shown)" observed_value="< 5.00"
compound="Clc1cccc(C(c2ccncc2)c2c[nH]cn2)c1Cl (stereo not shown)" observed_value="< 5.00"

API: the following record is the query input.
Give me measured pEC50, please, for this compound: Cc1ccccc1C(c1ccncc1)c1c[nH]cn1 (stereo not shown)
< 5.00
